Consider the following sequences and their measured shrunken log2 fold change readings.
# Test system: Escherichia coli TOP10
# assay.comment: shrunken log2 fold change of peptide-encoding DNA abundance (4.5 h post-induction vs induction); higher = less antimicrobial activity (less host growth inhibition)
# conditions: time post-induction: 4.5 h; library: site-saturation at positions 5, 18, 19, 20
observation.type: shrunken log2 fold change

chain_sequence=RRIRIRPPRLPRPRPRPDAIPRP observation_type="shrunken log2 fold change" value_measured=0.0309
chain_sequence=RRIRVRPPRLPRPRPRPSHGPRP observation_type="shrunken log2 fold change" value_measured=-0.143
chain_sequence=RRIRYRPPRLPRPRPRPAARPRP observation_type="shrunken log2 fold change" value_measured=0.0304
chain_sequence=RRIRWRPPRLPRPRPRPGSCPRP observation_type="shrunken log2 fold change" value_measured=0.389
chain_sequence=RRIRKRPPRLPRPRPRPTQSPRP observation_type="shrunken log2 fold change" value_measured=0.441
chain_sequence=RRIRDRPPRLPRPRPRPNQGPRP observation_type="shrunken log2 fold change" value_measured=0.125
chain_sequence=RRIRMRPPRLPRPRPRPQVMPRP observation_type="shrunken log2 fold change" value_measured=0.0337
chain_sequence=RRIRRRPPRLPRPRPRPQVEPRP observation_type="shrunken log2 fold change" value_measured=0.0147
chain_sequence=RRIRERPPRLPRPRPRPFYEPRP observation_type="shrunken log2 fold change" value_measured=-0.498
chain_sequence=RRIRWRPPRLPRPRPRPMHLPRP observation_type="shrunken log2 fold change" value_measured=-0.317
chain_sequence=RRIRHRPPRLPRPRPRPIPRPRP observation_type="shrunken log2 fold change" value_measured=-0.0447
chain_sequence=RRIRERPPRLPRPRPRPWMWPRP observation_type="shrunken log2 fold change" value_measured=0.0673
chain_sequence=RRIRVRPPRLPRPRPRPNECPRP observation_type="shrunken log2 fold change" value_measured=-0.0835

====

shrunken log2 fold change overview
# System: Escherichia coli TOP10
# assay.comment: shrunken log2 fold change of peptide-encoding DNA abundance (4.5 h post-induction vs induction); higher = less antimicrobial activity (less host growth inhibition)
# conditions: time post-induction: 4.5 h; library: site-saturation at positions 5, 18, 19, 20
observation.type: shrunken log2 fold change

chain_sequence=RRIRSRPPRLPRPRPRPYTCPRP value_measured=-0.039
chain_sequence=RRIRDRPPRLPRPRPRPIFEPRP value_measured=0.419
chain_sequence=RRIRTRPPRLPRPRPRPWYLPRP value_measured=-0.0692
chain_sequence=RRIRARPPRLPRPRPRPQYKPRP value_measured=-0.303

====

# Tested on: Escherichia coli TOP10;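 also: peptides expressed intracellularly from a pBAD plasmid library in pooled LB shake-flask culture, induced with 0.3% L-arabinose, DNA abundance read by NGS, three biological replicates, DESeq2 with apeglm shrinkage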
# assay.comment: shrunken log2 fold change of peptide-encoding DNA abundance (4.5 h post-induction vs induction); higher = less antimicrobial activity (less host growth inhibition)
# conditions: time post-induction: 4.5 h; library: site-saturation at positions 5, 18, 19, 20
As shown below, each of these sequences has a reported shrunken log2 fold change value.
observation.type: shrunken log2 fold change

chain_sequence=RRIRSRPPRLPRPRPRPAYNPRP observation_type="shrunken log2 fold change" value_measured=-0.00937
chain_sequence=RRIRLRPPRLPRPRPRPAQYPRP observation_type="shrunken log2 fold change" value_measured=-0.0702
chain_sequence=RRIRQRPPRLPRPRPRPPENPRP observation_type="shrunken log2 fold change" value_measured=0.0912
chain_sequence=RRIRQRPPRLPRPRPRPNSAPRP observation_type="shrunken log2 fold change" value_measured=-0.173
chain_sequence=RRIRFRPPRLPRPRPRPAISPRP observation_type="shrunken log2 fold change" value_measured=-0.193
chain_sequence=RRIRTRPPRLPRPRPRPMRYPRP observation_type="shrunken log2 fold change" value_measured=-0.0953
chain_sequence=RRIRQRPPRLPRPRPRPCFNPRP observation_type="shrunken log2 fold change" value_measured=-0.161
chain_sequence=RRIRERPPRLPRPRPRPAQPPRP observation_type="shrunken log2 fold change" value_measured=0.0203
chain_sequence=RRIRARPPRLPRPRPRPHVIPRP observation_type="shrunken log2 fold change" value_measured=0.0726
chain_sequence=RRIRERPPRLPRPRPRPHYQPRP observation_type="shrunken log2 fold change" value_measured=-0.267
chain_sequence=RRIRERPPRLPRPRPRPFEQPRP observation_type="shrunken log2 fold change" value_measured=-0.126
chain_sequence=RRIRMRPPRLPRPRPRPMATPRP observation_type="shrunken log2 fold change" value_measured=0.0129
chain_sequence=RRIRYRPPRLPRPRPRPHKAPRP observation_type="shrunken log2 fold change" value_measured=-0.0167
